Hey, just so you know, these numbers are from paper PMC8151276.

testedSystem: NPFFR1 (Homo sapiens, UniProt Q9GZQ6)
Construct: purchased Promega (in-house HiBiT-GPCR construct library, NanoBRET)
Sequence (Q9GZQ6 whole entry): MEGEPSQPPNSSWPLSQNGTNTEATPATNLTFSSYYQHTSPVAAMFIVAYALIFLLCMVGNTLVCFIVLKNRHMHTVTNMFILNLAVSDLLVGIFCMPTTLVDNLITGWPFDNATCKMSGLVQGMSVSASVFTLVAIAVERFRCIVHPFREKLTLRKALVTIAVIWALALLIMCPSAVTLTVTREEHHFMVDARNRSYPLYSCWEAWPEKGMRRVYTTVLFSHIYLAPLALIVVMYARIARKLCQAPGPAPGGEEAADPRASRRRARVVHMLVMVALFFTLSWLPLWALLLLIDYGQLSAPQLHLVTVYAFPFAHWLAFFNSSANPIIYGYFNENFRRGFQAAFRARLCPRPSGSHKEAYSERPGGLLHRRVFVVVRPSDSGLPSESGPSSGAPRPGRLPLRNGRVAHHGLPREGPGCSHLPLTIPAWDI
testProtocol: NanoBRET screen HiBiT-NPFFR1 in HEK293
Type: binding
measurementContext: NPFFR1; tracer 1μM
Listing: NanoBRET Fold Response of selected molecules
Field format: numeric only.

Example results:
INSERT INTO measurements (molecule, testedsystem, observationtype, observedvalue) VALUES
  ('O=C(CCc1ccc2n1[B-](F)(F)[N+]1=C(c3ccc[nH]3)C=CC1=C2)NCCOCCOCCNC(=O)OCCOCCN1CCN(C2=Nc3ccccc3Sc3ccccc32)CC1', 'NPFFR1 (Homo sapiens, UniProt Q9GZQ6)', 'NanoBRET Fold Response', 1.00),
  ('CC(C)N(CC[C@H](c1ccccc1)c1cc(CCNC(=O)c2ccc(CNC(=O)CCc3ccc4n3[B-](F)(F)[N+]3=C(c5ccc[nH]5)C=CC3=C4)cc2)ccc1O)C(C)C', 'NPFFR1 (Homo sapiens, UniProt Q9GZQ6)', 'NanoBRET Fold Response', 1.02),
  ('O=C(CCOCCOCCOCCOCCNC(=O)CCc1ccc2n1[B-](F)(F)[N+]1=C(c3ccc[nH]3)C=CC1=C2)NCCCN1CCN(C2=Nc3ccccc3Oc3ccc(Cl)cc32)CC1', 'NPFFR1 (Homo sapiens, UniProt Q9GZQ6)', 'NanoBRET Fold Response', 1.00);

Need NanoBRET Fold Response, item O=C(CCc1ccc2n1[B-](F)(F)[N+]1=C(c3ccc[nH]3)C=CC1=C2)NCc1ccc(C(=O)NCCOCCC(=O)N[C@@H]2CC[C@@]3(O)[C@H]4Cc5ccc(O)c6c5[C@@]3(CCN4CC3CC3)[C@H]2O6)cc1 [Naltrexone-3-NB590]
1.15

Need NanoBRET Fold Response, item `COc1ccccc1N1CCN(CCCCN2C(=O)c3ccc(CNC(=O)CCOCCNC(=O)c4ccc(CNC(=O)CCc5ccc6n5[B-](F)(F)[N+]5=C(c7ccc[nH]7)C=CC5=C6)cc4)cc3C2=O)CC1`
0.96

----------
Listing: NanoBRET Fold Response of selected compounds
testedSystem: MTNR1B (Homo sapiens, UniProt P49286)
Construct: purchased Promega (in-house HiBiT-GPCR construct library, NanoBRET)
Sequence (P49286 whole entry): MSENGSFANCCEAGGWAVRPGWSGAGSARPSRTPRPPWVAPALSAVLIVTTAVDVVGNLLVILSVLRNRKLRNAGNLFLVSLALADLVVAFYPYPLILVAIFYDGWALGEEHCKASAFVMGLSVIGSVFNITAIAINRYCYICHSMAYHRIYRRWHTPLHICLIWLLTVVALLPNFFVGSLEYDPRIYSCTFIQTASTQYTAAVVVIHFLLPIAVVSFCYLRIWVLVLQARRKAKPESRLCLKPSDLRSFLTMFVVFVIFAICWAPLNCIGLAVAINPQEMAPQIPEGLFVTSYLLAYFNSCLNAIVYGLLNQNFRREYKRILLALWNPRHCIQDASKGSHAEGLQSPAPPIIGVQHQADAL
testProtocol: NanoBRET screen HiBiT-MTNR1B in HEK293
Type: binding
measurementContext: MTNR1B; tracer 1μM

INSERT INTO measurements (compound, observedvalue) VALUES
  ('CC(C)N(CC[C@H](c1ccccc1)c1cc(CCNC(=O)CCOCCOCCOCCOCCNC(=O)CCc2ccc3n2[B-](F)(F)[N+]2=C(c4ccc[nH]4)C=CC2=C3)ccc1O)C(C)C', 0.79);

Need NanoBRET Fold Response, item `CCCn1c(=O)c2[nH]c(-c3ccc(OCC(=O)NCCNC(=O)CCOCCNC(=O)c4ccc(CNC(=O)CCc5ccc6n5[B-](F)(F)[N+]5=C(c7ccc[nH]7)C=CC5=C6)cc4)cc3)nc2n(CCC)c1=O`
1.05

Need NanoBRET Fold Response, item Cc1nc2n(c(=O)c1CCN1CCC(c3noc4cc(F)ccc34)CC1)CCCC2OC(=O)NCCOCCOCCOCCOCCNC(=O)CCc1ccc2n1[B-](F)(F)[N+]1=C(c3ccc[nH]3)C=CC1=C2 (stereo not drawn)
0.92

----------
testedSystem: C3AR1 (Homo sapiens)
Construct: purchased Promega (in-house HiBiT-GPCR construct library, NanoBRET)
Sequence (Q16581 1-482): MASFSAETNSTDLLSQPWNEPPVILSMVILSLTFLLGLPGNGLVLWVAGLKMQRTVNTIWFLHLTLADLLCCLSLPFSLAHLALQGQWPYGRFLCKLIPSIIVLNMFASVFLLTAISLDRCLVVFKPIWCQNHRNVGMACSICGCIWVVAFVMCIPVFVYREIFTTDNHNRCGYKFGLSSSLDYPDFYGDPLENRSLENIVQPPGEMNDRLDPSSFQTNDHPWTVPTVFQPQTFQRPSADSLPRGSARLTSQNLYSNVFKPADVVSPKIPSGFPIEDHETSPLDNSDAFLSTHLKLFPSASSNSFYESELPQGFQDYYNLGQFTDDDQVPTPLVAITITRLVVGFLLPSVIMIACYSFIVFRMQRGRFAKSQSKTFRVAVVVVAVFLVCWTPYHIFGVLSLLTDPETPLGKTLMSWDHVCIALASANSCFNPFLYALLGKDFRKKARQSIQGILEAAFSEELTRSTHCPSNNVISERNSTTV
testProtocol: NanoBRET screen HiBiT-C3AR1 in HEK293
Format: binding
measurementContext: C3AR1; tracer 0.1μM
Answer f if NanoBRET Fold Response is under 1, and t if it is 1 or more.

INSERT INTO assay_data (compound, assignedclass) VALUES
  ('O=C(CCc1ccc2n1[B-](F)(F)[N+]1=C(c3ccc[nH]3)C=CC1=C2)NCCOCCOCCNC(=O)OCCOCCN1CCN(C2=Nc3ccccc3Sc3ccccc32)CC1 [Quetiapine-a-2-NB590]', 'f'),
  ('O=C(CCOCCOCCOCCOCCNC(=O)CCc1ccc2n1[B-](F)(F)[N+]1=C(c3ccc[nH]3)C=CC1=C2)NCCCN1CCN(C2=Nc3ccccc3Oc3ccc(Cl)cc32)CC1 [Loxapine-a-2-NB590]', 'f'),
  ('CCCn1c(=O)c2[nH]c(-c3ccc(OCC(=O)NCCNC(=O)CCOCCNC(=O)c4ccc(CNC(=O)CCc5ccc6n5[B-](F)(F)[N+]5=C(c7ccc[nH]7)C=CC5=C6)cc4)cc3)nc2n(CCC)c1=O [XAC-3-NB590]', 't'),
  ('Cc1nc2n(c(=O)c1CCN1CCC(c3noc4cc(F)ccc34)CC1)CCCC2OC(=O)NCCOCCOCCOCCOCCNC(=O)CCc1ccc2n1[B-](F)(F)[N+]1=C(c3ccc[nH]3)C=CC1=C2 (centres unmarked) [Risperidone-2-NB590]', 'f'),
  ('CC(C)N(CC[C@H](c1ccccc1)c1cc(CCNC(=O)CCOCCOCCOCCOCCNC(=O)CCc2ccc3n2[B-](F)(F)[N+]2=C(c4ccc[nH]4)C=CC2=C3)ccc1O)C(C)C [Tolterodine-2-NB590]', 't'),
  ('COc1ccccc1N1CCN(CCCCN2C(=O)c3ccc(CNC(=O)CCOCCNC(=O)c4ccc(CNC(=O)CCc5ccc6n5[B-](F)(F)[N+]5=C(c7ccc[nH]7)C=CC5=C6)cc4)cc3C2=O)CC1 [NAN-190-3-NB590]', 'f');

Determine whether this compound has NanoBRET Fold Response no lower than 1: COc1ccccc1N1CCN(CCCCN2C(=O)c3ccc(CNC(=O)CCOCCOCCOCCOCCNC(=O)CCc4ccc5n4[B-](F)(F)[N+]4=C(c6ccc[nH]6)C=CC4=C5)cc3C2=O)CC1 [NAN-190-2-NB590]
t
